# TARGET_UNDER_TEST: T1, Factor VIIIa (FVIIIa), from recombinant FVIII (Kogenate FS; Bayer healthcare) activated with alpha-thrombin (UniProt P00451 20-2351)
# T1 sequence (looked up): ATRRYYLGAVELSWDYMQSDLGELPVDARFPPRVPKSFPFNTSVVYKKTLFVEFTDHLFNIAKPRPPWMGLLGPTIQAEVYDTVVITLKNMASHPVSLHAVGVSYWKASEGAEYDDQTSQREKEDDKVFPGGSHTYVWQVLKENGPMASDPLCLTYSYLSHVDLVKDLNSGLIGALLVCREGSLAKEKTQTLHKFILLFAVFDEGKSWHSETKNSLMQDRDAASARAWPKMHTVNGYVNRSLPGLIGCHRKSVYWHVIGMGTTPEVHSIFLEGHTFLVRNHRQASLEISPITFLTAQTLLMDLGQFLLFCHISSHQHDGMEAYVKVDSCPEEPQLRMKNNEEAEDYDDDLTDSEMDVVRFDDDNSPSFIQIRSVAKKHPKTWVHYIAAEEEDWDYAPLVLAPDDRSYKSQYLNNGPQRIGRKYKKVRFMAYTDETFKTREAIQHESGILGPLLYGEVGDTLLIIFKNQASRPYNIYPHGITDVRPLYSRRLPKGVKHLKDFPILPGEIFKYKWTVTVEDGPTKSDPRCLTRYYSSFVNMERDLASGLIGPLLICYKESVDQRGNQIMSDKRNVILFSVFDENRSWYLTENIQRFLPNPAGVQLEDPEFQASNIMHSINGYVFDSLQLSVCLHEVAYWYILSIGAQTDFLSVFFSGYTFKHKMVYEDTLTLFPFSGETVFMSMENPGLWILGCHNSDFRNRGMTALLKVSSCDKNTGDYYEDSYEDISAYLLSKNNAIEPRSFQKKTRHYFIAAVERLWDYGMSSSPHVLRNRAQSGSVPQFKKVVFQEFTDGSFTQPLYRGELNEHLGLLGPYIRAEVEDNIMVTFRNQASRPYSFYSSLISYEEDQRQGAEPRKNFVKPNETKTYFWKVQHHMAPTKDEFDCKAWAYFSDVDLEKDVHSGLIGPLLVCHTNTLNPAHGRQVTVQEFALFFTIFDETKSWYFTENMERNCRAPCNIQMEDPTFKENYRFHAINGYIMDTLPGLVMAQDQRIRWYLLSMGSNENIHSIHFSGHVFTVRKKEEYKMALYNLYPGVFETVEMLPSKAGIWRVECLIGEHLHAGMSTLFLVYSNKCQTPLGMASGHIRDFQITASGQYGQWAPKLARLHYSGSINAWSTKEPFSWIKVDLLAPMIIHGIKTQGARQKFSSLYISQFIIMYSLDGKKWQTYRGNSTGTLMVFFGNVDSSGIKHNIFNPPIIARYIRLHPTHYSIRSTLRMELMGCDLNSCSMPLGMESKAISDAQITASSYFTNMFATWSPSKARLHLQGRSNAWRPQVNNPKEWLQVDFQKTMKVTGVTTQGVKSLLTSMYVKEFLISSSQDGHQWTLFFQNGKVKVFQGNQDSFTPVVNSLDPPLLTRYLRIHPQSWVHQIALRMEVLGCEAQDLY
# PROCEDURE_SUMMARY: ratio of KD-app of Catalyst Biosciences WT FIXa to KD-app of the variant, same Xase assay
ASSAY_METRIC: KD-WT/KD-mut (fold)
Please respond with the number in fold and leave the unit unwritten.

For this binder ( FIXa variant R318Y/R338E/R403E/E410S (enzyme, also called R150Y/R170E/R233E/E240S) light: YNSGKLEEFVQGNLERECMEEKCSFEEAREVFENTERTTEFWKQYVDGDQCESNPCLNGGSCKDDINSYECWCPFGFEGKNCELDVTCNIKNGRCEQFCKNSADNKVVCSCTEGYRLAENQKSCEPAVPFPCGRVSVSQTSKLTR heavy: VVGGEDAKPGQFPWQVVLNGKVDAFCGGSIVNEKWIVTAAHCVETGVKITVVAGEHNIEETEHTEQKRNVIRIIPHHNYNAAINKYNHDIALLELDEPLVLNSYVTPICIADKEYTNIFLKFGSGYVSGWGRVFHKGYSALVLQYLRVPLVDRATCLESTKFTIYNNMFCAGFHEGGRDSCQGDSGGPHVTEVEGTSFLTGIISWGEECAMKGKYGIYTKVSEYVNWIKSKTKLT ), measured KD-WT/KD-mut is 1.8

This collection of values is drawn from patent US20210238260A1.
